We begin with a simple list: items and their reported GI50.
# Assay System: BaF3_HER2YVMA cells (Homo sapiens, UniProt P04626, DUP772-775, cells depend on it)
# Sequence (P04626 with tags, fused parts or gaps DUP772-775): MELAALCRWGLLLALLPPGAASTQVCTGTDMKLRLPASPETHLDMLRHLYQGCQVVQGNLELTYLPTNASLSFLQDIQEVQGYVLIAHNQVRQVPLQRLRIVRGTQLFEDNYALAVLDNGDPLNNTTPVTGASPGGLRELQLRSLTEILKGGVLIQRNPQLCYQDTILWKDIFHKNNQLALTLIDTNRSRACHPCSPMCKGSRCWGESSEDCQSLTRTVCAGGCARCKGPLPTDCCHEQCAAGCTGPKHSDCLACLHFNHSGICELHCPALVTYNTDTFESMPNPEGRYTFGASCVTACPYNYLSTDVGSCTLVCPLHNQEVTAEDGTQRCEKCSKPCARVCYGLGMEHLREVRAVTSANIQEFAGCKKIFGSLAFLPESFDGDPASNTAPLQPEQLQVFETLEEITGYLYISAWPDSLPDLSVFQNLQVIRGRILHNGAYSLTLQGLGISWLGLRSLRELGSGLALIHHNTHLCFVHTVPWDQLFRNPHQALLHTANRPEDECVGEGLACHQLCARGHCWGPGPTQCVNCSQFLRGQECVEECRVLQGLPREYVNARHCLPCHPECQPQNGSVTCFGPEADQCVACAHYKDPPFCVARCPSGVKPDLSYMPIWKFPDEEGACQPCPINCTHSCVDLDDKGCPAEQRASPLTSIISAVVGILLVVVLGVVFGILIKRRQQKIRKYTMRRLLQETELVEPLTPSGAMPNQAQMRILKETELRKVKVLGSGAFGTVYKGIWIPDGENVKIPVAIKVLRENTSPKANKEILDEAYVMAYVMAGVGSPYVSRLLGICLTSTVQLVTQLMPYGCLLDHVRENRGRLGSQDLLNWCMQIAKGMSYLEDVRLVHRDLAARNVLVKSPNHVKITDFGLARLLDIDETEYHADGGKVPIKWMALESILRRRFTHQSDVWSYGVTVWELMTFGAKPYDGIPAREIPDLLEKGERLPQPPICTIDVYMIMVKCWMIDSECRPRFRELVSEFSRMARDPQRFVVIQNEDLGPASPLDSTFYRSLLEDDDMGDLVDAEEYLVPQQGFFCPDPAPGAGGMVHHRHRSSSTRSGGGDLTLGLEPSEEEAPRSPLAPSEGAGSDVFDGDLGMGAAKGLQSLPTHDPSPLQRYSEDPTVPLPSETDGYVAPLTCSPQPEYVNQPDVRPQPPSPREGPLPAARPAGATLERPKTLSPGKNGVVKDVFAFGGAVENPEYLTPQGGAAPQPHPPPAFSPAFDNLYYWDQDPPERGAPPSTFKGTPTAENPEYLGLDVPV
# Experimental Details: Cell growth inhibition assay (CellTiterGlo), BaF3_HER2YVMA
# Type: cell-based
# Condition Summary: cell growth inhibition, 3 days treatment, read-out: HER2 - YVMA IC50

Consider the worked cases shown below.
compound="Cc1cc(Nc2ncnn3ccc(C4CCN(C(=O)/C=C/CN(C)C)C4)c23)ccc1Oc1ccn2ncnc2c1 (single isomer, unassigned) [Examples 99 and 100, first eluting isomer]" result="< 0.2 µM"
compound="Cc1cc(Nc2ncnn3ccc(C4CCCN(C(=O)/C=C/CN(C)C)C4)c23)ccc1Oc1ccn2ncnc2c1 (single isomer, unassigned) [Examples 107 and 108, second eluting isomer]" result="1.5 to 5 µM"
compound="Cc1cc(Nc2ncnn3ccc(C4CCN(C(=O)/C=C/CN(C)C)C4)c23)ccc1Oc1ccn2ncnc2c1 (single isomer, unassigned) [Examples 99 and 100, second eluting isomer]" result="0.5 to 1.5 µM"
compound="Cc1cc(Nc2ncnn3ccc(C4CC5CCC4CN5C(=O)/C=C/CN(C)C)c23)ccc1Oc1ccn2ncnc2c1 (single isomer, unassigned) [Examples 137 and 138, second eluting isomer]" result="1.5 to 5 µM"

Lab note: next compound to report on.
Data request: So what's the measured GI50 for this one? Cc1cc(Nc2ncnn3ccc(C4CCCN(C(=O)/C=C/CN(C)C)CC4)c23)ccc1Oc1ccn2ncnc2c1 (single isomer, unassigned) [Examples 109 and 110, first eluting isomer]
Data returned: < 0.2 µM
